pIC50: −log10 of the molar value.
Lab note: pIC50 readings collected with human CTPS1 (Homo sapiens (Human)) for the following compounds.
Sequence (P17812 whole entry): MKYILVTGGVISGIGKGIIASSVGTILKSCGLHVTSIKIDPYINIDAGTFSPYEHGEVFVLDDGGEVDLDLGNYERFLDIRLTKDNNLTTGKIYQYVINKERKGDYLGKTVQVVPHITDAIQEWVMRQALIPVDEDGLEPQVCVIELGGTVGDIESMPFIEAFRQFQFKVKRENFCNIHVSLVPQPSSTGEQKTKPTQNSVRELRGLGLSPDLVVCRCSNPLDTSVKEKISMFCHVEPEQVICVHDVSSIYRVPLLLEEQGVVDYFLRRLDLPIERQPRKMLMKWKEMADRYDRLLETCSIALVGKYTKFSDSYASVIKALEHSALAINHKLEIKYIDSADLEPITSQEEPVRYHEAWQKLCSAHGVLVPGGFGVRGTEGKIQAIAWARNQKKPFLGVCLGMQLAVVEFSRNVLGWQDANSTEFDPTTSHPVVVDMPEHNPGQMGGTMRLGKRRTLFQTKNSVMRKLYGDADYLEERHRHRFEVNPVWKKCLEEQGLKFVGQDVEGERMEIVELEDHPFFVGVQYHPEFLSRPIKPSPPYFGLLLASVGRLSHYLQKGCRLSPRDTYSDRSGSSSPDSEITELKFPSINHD

- CCOc1cncc(-c2cnc(C(=O)N3CCC[C@@H]3c3cncc(NS(=O)(=O)C4CC4)c3)s2)n1: > 7.00
- CCOc1cncc(-c2cnc(C(=O)N[C@](C)(COC)c3cc(NS(=O)(=O)C4CC4)ccn3)s2)n1: > 7.00
- CCOc1cncc(-c2cnc(C(=O)NC(CCN3CCCC3)c3cc(NS(=O)(=O)C4CC4)ccn3)s2)n1 (stereo not shown): > 7.00
- O=C(NC1(c2csc(NS(=O)(=O)C3CC3)n2)CC1)c1ccc2cnccc2c1: ≤ 6.00
- CCOc1cncc(-c2cnc(C(=O)N3CCC[C@H]3c3ccnc(NS(=O)(=O)C4CC4)n3)s2)n1: > 7.00
- CCOc1cncc(-c2cnc(C(=O)NC(CCN(C)C)c3c(F)ccc(NS(=O)(=O)C4CC4)c3F)s2)n1 (stereo not shown): ≤ 6.00

# next compound below
Ask: Please provide the recorded pIC50 for CCOc1cncc(-c2cnc(C(=O)N[C@@H](CN3CCC3)c3cc(NS(=O)(=O)C4CC4)ccn3)s2)n1 (single isomer, unassigned) , tested on human CTPS1 (Homo sapiens (Human)).
Result: 6.00 to 7.00
